# Test system: TpdE
# Construct: C-terminal His6 tag, pET-tpdE in E. coli BL21 (DE3), Ni-chelating column, ~30 kDa on SDS-PAGE; residues T15, G16, G20, G22, N119, S148, Y161, K165
# assay: NADPH oxidation at […] nm, Michaelis-Menten fit
# Format: biochemical, Rhodococcus jostii
# condition notes: 0.2 mM NADPH, 50 mM phosphate pH 7.2, 30 °C; apparent
parameter measured: Km (mM)

[1] CCC(=O)C(=O)CC
[2] CCCCC(=O)C(C)=O
Form field 'greater Km' accepts 1 or 2 ; which applies? Which one? Tell me its label.
2

[A] CCCC(=O)C(C)=O
[B] CCCC(=O)OC(C)C(C)=O (stereo not drawn) [Butan-3-one-2-yl-butanoate]
For the pair A and B , which member has the lower Km number? Which one? Tell me its label.
B
(B: 0.76 mM, A: 2.2 mM)

[1] CC(=O)C(C)(C)O [3-Hydroxy-3-methyl-2-butanone]
[2] CC(=O)C(C)=O
Form field 'greater Km' accepts 1 or 2 ; which applies? Which one? Tell me its label.
1
(1: 14.6 mM, 2: 1.9 mM)

[A] CCC(=O)C(C)=O
[B] CC(=O)C(C)S (stereo not drawn)
Form field 'greater Km' accepts A or B ; which applies? Which one? Tell me its label.
B
(B: 14.4 mM, A: 0.98 mM)
